Give Ki for every item shown.
STUDY SYSTEM: vanilloid receptor (VR1) (Homo sapiens, UniProt Q8NER1)
Construct: expressed in transfected cells; host or cells: CHO K1 cells (ECACC), stably transfected
Sequence (Q8NER1 whole entry): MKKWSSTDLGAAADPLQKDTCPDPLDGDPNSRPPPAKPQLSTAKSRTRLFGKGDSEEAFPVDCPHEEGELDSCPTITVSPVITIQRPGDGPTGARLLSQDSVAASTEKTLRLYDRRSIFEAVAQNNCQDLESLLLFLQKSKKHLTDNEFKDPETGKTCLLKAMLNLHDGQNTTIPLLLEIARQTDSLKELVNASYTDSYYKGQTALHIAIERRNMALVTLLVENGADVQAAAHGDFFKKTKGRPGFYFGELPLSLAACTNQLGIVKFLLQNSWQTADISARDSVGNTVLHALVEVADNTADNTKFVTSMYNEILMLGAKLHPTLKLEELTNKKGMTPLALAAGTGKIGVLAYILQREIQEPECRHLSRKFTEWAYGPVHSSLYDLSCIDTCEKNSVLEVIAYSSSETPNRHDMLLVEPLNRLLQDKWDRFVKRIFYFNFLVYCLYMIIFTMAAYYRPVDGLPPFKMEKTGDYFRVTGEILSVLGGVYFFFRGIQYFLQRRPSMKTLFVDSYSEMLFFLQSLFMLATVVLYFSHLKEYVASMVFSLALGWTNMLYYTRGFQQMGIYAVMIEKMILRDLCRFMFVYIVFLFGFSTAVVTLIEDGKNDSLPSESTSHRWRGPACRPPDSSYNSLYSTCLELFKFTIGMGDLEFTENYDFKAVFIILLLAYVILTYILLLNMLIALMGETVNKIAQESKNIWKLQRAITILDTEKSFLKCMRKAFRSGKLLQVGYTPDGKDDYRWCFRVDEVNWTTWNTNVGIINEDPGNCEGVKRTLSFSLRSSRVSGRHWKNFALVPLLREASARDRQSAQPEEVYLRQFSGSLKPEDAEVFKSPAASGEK
ASSAY NAME: FLIPR Ca2+ influx assay on CHO K1 cells transfected with the VR1 gene (pharmacological method II)
Assay type: cell-based
COND: table 4; capsaicin; read-out: Ki (human) Cap.
Description: In this FLIPR assay, the influx of Ca^2+ is quantified with the assistance of a Ca^2+-sensitive dye (type Fluo-4, Molecular Probes Europe BV, Leiden, Netherlands) in a Fluorescent Imaging Plate Reader (FLIPR, Molecular Devices, Sunnyvale, USA) as described below. II. Functional Investigations on the Vanilloid Receptor (VR1) The agonistic or antagonistic action of the substances to be investigated on the vanilloid receptor (VR1) may also be determined with the following assay. […]
One number for each entry, in nM.

Worked cases, answers included:
MOLECULE | ASSAY VALUE
CC(C(=O)NCc1ccc(C(F)(F)F)nc1C1=CCCCC1)c1ccc(NS(C)(=O)=O)c(F)c1 (stereo not drawn) | 0.7
CCCCOc1nc(C(F)(F)Cl)ccc1CNC(=O)C(C)c1ccc(NS(C)(=O)=O)c(F)c1 (stereo not drawn) | 0.7
CC(C(=O)NCc1ccc(C(F)(F)F)nc1Nc1ccccc1)c1ccc(NS(C)(=O)=O)c(F)c1 (stereo not drawn) | 59.6
CC(C(=O)NCc1ccc(C(F)(F)F)nc1N1CCN(c2ncccc2Cl)CC1)c1ccc(NS(C)(=O)=O)c(F)c1 (stereo not drawn) | 2.1

Batch lookup, Ki per entry.
1. CC(C(=O)NCc1ccc(C(F)(F)F)nc1OC1Cc2ccccc2C1)c1ccc(NS(C)(=O)=O)c(F)c1 (stereo not drawn)
2. CCCN(CCC)c1nc(C(F)(F)Cl)ccc1CNC(=O)C(C)c1ccc(NS(C)(=O)=O)c(F)c1 (stereo not drawn)
3. CC(C(=O)NCc1ccc(C(F)(F)F)nc1-c1ccccc1F)c1ccc(NS(C)(=O)=O)c(F)c1 (stereo not drawn)
4. CC(C)COc1cc(C(F)(F)F)ccc1CNC(=O)[C@H](C)c1ccc(NS(C)(=O)=O)c(F)c1
5. CCCN(CCC)c1cc(C(F)(F)F)ccc1CNC(=O)C(C)c1ccc(NS(C)(=O)=O)c(F)c1 (stereo not drawn)

Response:
2.7
0.6
63.3
5.8
0.3
